Target: Aurora kinase B (Homo sapiens, UniProt Q96GD4)
Sequence (Q96GD4 whole entry): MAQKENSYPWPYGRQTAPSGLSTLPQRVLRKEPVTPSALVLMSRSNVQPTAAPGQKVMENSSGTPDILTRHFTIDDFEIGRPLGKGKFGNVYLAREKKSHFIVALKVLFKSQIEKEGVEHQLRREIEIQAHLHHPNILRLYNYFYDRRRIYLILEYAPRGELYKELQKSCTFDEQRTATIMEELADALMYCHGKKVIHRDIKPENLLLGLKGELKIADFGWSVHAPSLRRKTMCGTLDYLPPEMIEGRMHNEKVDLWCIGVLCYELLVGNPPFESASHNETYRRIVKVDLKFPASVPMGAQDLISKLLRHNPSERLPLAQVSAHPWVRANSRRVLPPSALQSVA
Assay: Inhibition of human recombinant Aurora kinase B using tetra(LRRASLG) as substrate at 100 uM preincubated for 15 mins prior to substrate addition measured after 90 mins by luminescence assay relative to control
Property Name: inhibition (%)

• O=C(Nc1ccccc1)Nc1ccc(CCNc2ncnc3oc(-c4ccccc4)cc23)cc1 = 52.4
• CN(C)CCOc1cccc(-c2cc3c(NCCc4ccc(NC(=O)Nc5ccccc5)cc4)ncnc3o2)c1 = 15.9
• CCN(CCO)CCOc1ccc(-c2cc3c(NCCc4ccc(NC(=O)Nc5ccccc5)cc4)ncnc3o2)cc1 = 100
• CN(C)CCCOc1ccc(-c2cc3c(NCCc4ccc(NC(=O)Nc5ccccc5)cc4)ncnc3o2)cc1 = 64.8
• CN1CCN(CCOc2ccc(-c3cc4c(NCCc5ccc(NC(=O)Nc6ccccc6)cc5)ncnc4o3)cc2)CC1 = 76.4
• O=C(Nc1ccccc1)Nc1ccc(CCNc2ncnc3oc(-c4ccc(OCCN5CCOCC5)cc4)cc23)cc1 = 54.7
• CCCCN(CCCC)CCOc1ccc(-c2cc3c(NCCc4ccc(NC(=O)Nc5ccccc5)cc4)ncnc3o2)cc1 = 10.8
• O=C(Nc1ccccc1)Nc1ccc(CCNc2ncnc3oc(-c4ccc(OCCN5CCCCC5)cc4)cc23)cc1 = 17.6
